Reference source: patent US10377753B2

- system tested: cloned human NR1/NR2B ion channels (Homo sapiens (Human), UniProt Q05586+Q13224)
- Sequence (Q13224 27-1484, other chains not shown): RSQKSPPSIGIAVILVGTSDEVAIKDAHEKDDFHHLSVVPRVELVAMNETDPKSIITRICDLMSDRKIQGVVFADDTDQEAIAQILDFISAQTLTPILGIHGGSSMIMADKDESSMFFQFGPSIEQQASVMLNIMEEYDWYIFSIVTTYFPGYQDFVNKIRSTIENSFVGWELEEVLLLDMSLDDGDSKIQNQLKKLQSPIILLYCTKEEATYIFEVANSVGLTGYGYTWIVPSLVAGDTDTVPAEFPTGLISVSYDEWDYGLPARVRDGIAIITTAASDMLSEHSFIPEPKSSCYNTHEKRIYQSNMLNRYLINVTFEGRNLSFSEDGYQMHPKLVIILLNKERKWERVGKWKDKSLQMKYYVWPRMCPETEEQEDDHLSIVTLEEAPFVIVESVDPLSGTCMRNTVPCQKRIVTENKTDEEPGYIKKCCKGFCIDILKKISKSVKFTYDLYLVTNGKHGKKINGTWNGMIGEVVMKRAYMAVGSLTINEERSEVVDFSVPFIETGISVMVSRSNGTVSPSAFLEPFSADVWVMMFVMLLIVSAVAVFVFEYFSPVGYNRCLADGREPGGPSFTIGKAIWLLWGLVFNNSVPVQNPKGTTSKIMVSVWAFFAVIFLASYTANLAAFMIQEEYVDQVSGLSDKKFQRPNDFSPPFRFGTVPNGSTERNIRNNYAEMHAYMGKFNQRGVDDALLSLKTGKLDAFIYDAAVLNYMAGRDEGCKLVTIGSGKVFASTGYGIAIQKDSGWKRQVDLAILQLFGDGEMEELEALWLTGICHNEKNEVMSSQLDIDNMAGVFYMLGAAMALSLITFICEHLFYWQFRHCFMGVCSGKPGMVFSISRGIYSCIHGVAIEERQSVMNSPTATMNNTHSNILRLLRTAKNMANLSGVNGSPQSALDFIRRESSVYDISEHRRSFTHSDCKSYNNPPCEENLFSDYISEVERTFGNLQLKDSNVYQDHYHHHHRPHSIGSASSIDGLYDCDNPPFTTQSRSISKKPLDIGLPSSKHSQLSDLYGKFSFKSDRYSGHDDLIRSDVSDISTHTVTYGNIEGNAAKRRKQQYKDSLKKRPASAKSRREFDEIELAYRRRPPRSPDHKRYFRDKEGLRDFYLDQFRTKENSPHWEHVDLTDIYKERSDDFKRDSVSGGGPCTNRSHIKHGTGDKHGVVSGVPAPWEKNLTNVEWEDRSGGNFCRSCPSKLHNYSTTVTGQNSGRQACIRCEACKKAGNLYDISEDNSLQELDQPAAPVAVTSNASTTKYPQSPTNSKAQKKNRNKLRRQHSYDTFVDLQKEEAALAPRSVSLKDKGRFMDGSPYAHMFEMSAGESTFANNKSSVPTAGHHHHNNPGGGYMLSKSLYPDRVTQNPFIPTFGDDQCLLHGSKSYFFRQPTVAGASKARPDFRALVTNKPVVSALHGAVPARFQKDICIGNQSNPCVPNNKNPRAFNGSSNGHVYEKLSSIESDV
- experimental details: HNR2BC: effects of test articles on cloned human NR1/NR2B ion channels expressed in mammalian cells (FLIPR calcium flux)
- Type: cell-based
- cond: cloned human NR1/NR2B ion channels, Table 5
pIC50: −log10 of the molar value.
endpoint: pIC50

Record excerpt, results attached:
Incoming: Entry "Cc1c(F)ccc(-c2cnc3c(C)cn(CC(=O)N4CC(F)(F)C4)c3c2)c1F" : reported pIC50 = ?
Outgoing: 6.20

Incoming: Entry "O=C(Cn1cc(Cl)c2ncc(-c3ccc(F)c(Cl)c3)cc21)N1CCC1" : reported pIC50 = ?
Outgoing: 7.30

Incoming: Entry "O=C(Cn1cc(F)c2ncc(-c3ccc(F)c(F)c3)cc21)N1CCC1" : reported pIC50 = ?
Outgoing: 7.80

Incoming: Entry "CCN(C)C(=O)Cn1cc(C)c2ncc(-c3ccc(F)c(C)c3)cc21" : reported pIC50 = ?
Outgoing: 7.30

[1] O=C(Cn1cc(F)c2ncc(-c3cc(F)cc(F)c3)cc21)N1CCC1
[2] Cc1cn(CC(=O)N(C)C)c2cc(-c3ccc(F)c(F)c3F)cnc12
Incoming: For this pair, 1 and 2 , which shows a numerically higher pIC50? Return value: the label identifying the chosen record.
Outgoing: 1
(1: 7.50, 2: 6.90)

====

- system tested: cloned human NR1/NR2B ion channels (Homo sapiens (Human), UniProt Q05586+Q13224)
- experimental details: HNR2BC: effects of test articles on cloned human NR1/NR2B ion channels expressed in mammalian cells (FLIPR calcium flux)
- Assay type: cell-based
- cond: cloned human NR1/NR2B ion channels, Table 5
endpoint: IC50 (nM)

Incoming: Given the entry "Cc1c(F)ccc(-c2cnc3c(C)cn(CC(=O)N4CCCC4)c3c2)c1F" , what IC50 was observed with cloned human NR1/NR2B ion channels (Homo sapiens (Human), UniProt Q05586+Q13224)?
Outgoing: 79.4

[1] CN(C)C(=O)Cn1ccc2ncc(-c3cccs3)cc21
[2] FC(F)(F)c1cccc(-c2cnc3c(Cl)cn(Cc4cccnc4)c3c2)c1
Incoming: Field: lower IC50 | Options: 1 / 2 Return value: the label identifying the chosen record.
Outgoing: 2

====

- system tested: cloned human NR1/NR2B ion channels (Homo sapiens (Human), UniProt Q05586+Q13224)
- experimental details: HNR2BC: effects of test articles on cloned human NR1/NR2B ion channels expressed in mammalian cells (FLIPR calcium flux)
- Type: cell-based
- cond: cloned human NR1/NR2B ion channels, Table 5
Structures can show the parent of a compound that is named as a salt.
endpoint: IC50 (nM)

Incoming: Entry "Cc1cccc(-c2cnc3c(F)cn(CC(=O)N4CC(F)C4)c3c2)c1" : reported IC50 = ?
Outgoing: 39.8

Incoming: Entry "Cc1csc(-c2cnc3c(Cl)cn(CC(=O)N4CC(F)C4)c3c2)c1" : reported IC50 = ?
Outgoing: 2510

Incoming: Entry "O=C(Cn1cc(Cl)c2ncc(-c3cccc(C(F)(F)F)c3F)cc21)N1CC(F)C1" : reported IC50 = ?
Outgoing: 79.4

Incoming: Entry "CN(C)C(=O)Cn1ccc2ncc(-c3ccc(F)c(C(F)(F)F)c3)cc21" : reported IC50 = ?
Outgoing: 79.4

Incoming: Entry "Cc1cccc(-c2cnc3c(C)cn(CC(=O)N4CCC4)c3c2)c1" : reported IC50 = ?
Outgoing: 79.4

Incoming: Entry "Cc1cn(CC(=O)N2CC(F)(F)C2)c2cc(-c3cccc(C(F)(F)F)c3F)cnc12" : reported IC50 = ?
Outgoing: 251

[1] CCc1ccc(-c2cnc3ccn(CC(=O)N(C)C)c3c2)s1 [Example 388, trifluoroacetate salt]
[2] Cc1cn(CC(=O)N2CC(F)(F)C2)c2cc(-c3ccccc3F)cnc12
[3] O=C(Cn1ccc2ncc(-c3cc(F)c(F)c(F)c3)cc21)N1CC(F)C1
Incoming: Rank entries according to their IC50, from the largest number down. Please write the labels in the order that was asked for.
Outgoing: 1, 2, 3
(1: 794 nM, 2: 316 nM, 3: 15.8 nM)
